- System: Thymidine kinase (Human herpesvirus 1)
- assay_info: Ability (300 uM) to compete with 150 uM of [14C]ACV for binding sites on viral enzyme (HSV-1 TK)
- measurement_conditions: Human alphaherpesvirus 1
Answer each item with its documented inhibition.
Return type: number; implicit unit %.

Qu. Please give measured inhibition of the following entry: NC(=O)c1ncn(COCCO)c1N
Ans. 1

Qu. Please give measured inhibition of the following entry: NC(=O)c1ncn(COCCO)n1
Ans. 0

Qu. Please give measured inhibition of the following entry: Nc1nc2c(cnn2COCCO)c(=O)[nH]1
Ans. 0

Qu. Please give measured inhibition of the following entry: Nc1nc(=O)ccn1COCCO
Ans. 0

Qu. Please give measured inhibition of the following entry: Nc1nc(O)c2cc3ncn(COCCO)c3cc2n1
Ans. 24

----------
Answer each item with its documented pIC50.
- Test system: Vero
- assay_info: The concentration required to inhibit the growth of viral plaques by 50% of control in plaque reduction assay
- Type: functional, cell-based
- measurement_conditions: Chlorocebus sabaeus
pIC50 is defined as minus the log10 of a concentration measured in mol/L.

Qu. Please give measured pIC50 of the following entry: Nc1nc(O)c2nnn(COCCO)c2n1
Ans. 3.89

Qu. Please give measured pIC50 of the following entry: Nc1nc2c(ncn2COCCO)c(=O)[nH]1 [ACYCLOVIR]
Ans. 7.00
